Where do the numbers come from? From patent US20070004634A1.

Target: IR (Homo sapiens)
Test: IR-Kd
Parameters: replacing the transmembrane domain and the intracellular domain of IR with constant domains from immunoglobulin Fc or λ subunits; made in house; host or cells: human embryonic kidney 293 cells (Bass et al.)
No end group written: not given here.
Assay Metric: Kd

The observed Kd for AFYDWFAKK [Peptide S167] when tested with IR (Homo sapiens) stands at > 20 µM

* * *

Target: IGF-1R (Homo sapiens, UniProt P08069)
Assay: Phage ELISA, binding of phage clones to IGF-1R (ratio over background)
Conditions: ratio of IGF-1R divided by ratio of IR
No end group written: not given here.
Rule: measured Comparisons IGF-1R/IR below 10 gets Met; anything equal to or greater than 10 gets Not met.

| Substance | Assigned Label |
| --- | --- |
| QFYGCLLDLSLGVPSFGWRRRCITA [20C-3-A4-IGFR] | Met |
| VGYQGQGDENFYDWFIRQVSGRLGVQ [H2CA-4-F5-IGFR] | Not met |
| FFYDCLAALLQGVARYHDLCAVEIT [20C-4-C7-IGFR] | Not met |
| PGTDLGFYQALRCVVIQGACD [20E2B-2-B2-IGFR] | Met |
| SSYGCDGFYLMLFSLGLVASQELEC [20C-3-A1-IGFR] | Not met |

Proceed to the following item.
Bench note: check whether AGTPAQVG*NRLWSVWPGEHWNTVDPFYNKLSELLRESGA (AGTPAQVGXNRLWSVWPGEHWNTVDPFYNKLSELLRESGA; not fully specified; X: residue not identified in the source; ends and bridges not checked) [Peptide B6L-4-A7-IR] shows Comparisons IGF-1R/IR below 10 Met

* * *

Target: IGF-1R (Homo sapiens)
Experiment: Phage ELISA, binding of phage clones to IGF-1R (ratio over background)
Details: ratio of IGF-1R divided by ratio of IR
Let's look at some sequences and their measured Comparisons IGF-1R/IR.
// keep it numeric: no unit symbol after the value

As a guide, the following entries are already answered.
| Residue Codes | Target Under Test | Comparisons IGF-1R/IR |
| --- | --- | --- |
| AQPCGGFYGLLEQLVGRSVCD [20E2B-4-F10-IGFR] | IGF-1R (Homo sapiens) | 7.8 |
| SRVAATKEKRPSDDPFYHKLSELLQGS [Peptide B6Hα-3-F7-IR] | IGF-1R (Homo sapiens) | 3.1 |
| IIGGFYSYFNSVLRLGT [NNRPγ-4-A1-IR] | IGF-1R (Homo sapiens) | 6.0 |
| CSMAAVAEAGDDDDPFYHKLSELCQGS [Peptide B6Hα-3-F1-IR] | IGF-1R (Homo sapiens) | 1.8 |
| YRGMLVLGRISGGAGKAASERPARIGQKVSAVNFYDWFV [Peptide A6L-0-H3-IR] | IGF-1R (Homo sapiens) | 13.0 |
| CCTTEMVVMDARDDPFYHKLSELVTGG [Peptide B6Hα-1-B5-IR] | IGF-1R (Homo sapiens) | 20.5 |
| GCITAENGAGDPFYHKLSELGGCS [Peptide B6Hα-1-B3-IR] | IGF-1R (Homo sapiens) | 2.9 |
| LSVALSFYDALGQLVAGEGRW [20E2A-3-A12-IGFR] | IGF-1R (Homo sapiens) | 3.9 |
| CGAKMTGTPNDPFYHKLSELLQRG [Peptide B6Hα-3-E6-IR] | IGF-1R (Homo sapiens) | 1.9 |

Here's the next entry for you.
The observed Comparisons IGF-1R/IR for AVRATRFDEAFYDWFVRQISDGQGNK [H2CA-4-F6-IGFR] when tested with IGF-1R (Homo sapiens) stands at 6.4

* * *

Biological target: IR (Homo sapiens, UniProt P06213)
Experiment: Phage ELISA, binding of phage clones to IR (ratio over background)
Details: ratio of IR divided by ratio of IGF-1R
No end group written: not given here.
Let's look at some substances and their measured Comparisons IR/IGF-1R.
// keep it numeric: no unit symbol after the value

As a guide, the following entries are already answered.
| Substance | Comparisons IR/IGF-1R |
| --- | --- |
| W.GYAWLS [40F-4-D10-IGFR] | 0.1 |
| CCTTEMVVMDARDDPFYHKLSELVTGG [Peptide B6Hα-1-B5-IR] | 0.0 |
| AICDAGFHEHFYDWFALQVSDCGRQS [H2CA-2-B11-IGFR] | 0.3 |
| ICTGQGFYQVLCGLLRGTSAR [20E2B-2-B3-IGFR] | 0.1 |
| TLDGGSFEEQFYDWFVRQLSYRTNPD [H2CA-4-G11-IGFR] | 0.3 |

The observed Comparisons IR/IGF-1R for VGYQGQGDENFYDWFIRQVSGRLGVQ [H2CA-4-F5-IGFR] when tested with IR (Homo sapiens, UniProt P06213) stands at 0.1

The observed Comparisons IR/IGF-1R for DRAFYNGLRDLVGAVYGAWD [R20α-4-20C11-IR] when tested with IR (Homo sapiens, UniProt P06213) stands at 0.1

The observed Comparisons IR/IGF-1R for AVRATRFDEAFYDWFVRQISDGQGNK [H2CA-4-F6-IGFR] when tested with IR (Homo sapiens, UniProt P06213) stands at 0.2

The observed Comparisons IR/IGF-1R for CMM.DGFYAGLGCLLTAGEGR (CMMXDGFYAGLGCLLTAGEGR; not fully specified; printed as CMM.DGFYAGLGCLLTAGEGR; X: residue not identified in the source; cysteine pairing not given here) [20E2B-3-C11-IGFR] when tested with IR (Homo sapiens, UniProt P06213) stands at 0.1

The observed Comparisons IR/IGF-1R for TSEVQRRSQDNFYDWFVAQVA [Peptide A6S-3-E2-IR] when tested with IR (Homo sapiens, UniProt P06213) stands at 0.4

The observed Comparisons IR/IGF-1R for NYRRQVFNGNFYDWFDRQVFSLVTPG [H2CA-3-D8-IGFR] when tested with IR (Homo sapiens, UniProt P06213) stands at 0.3

The observed Comparisons IR/IGF-1R for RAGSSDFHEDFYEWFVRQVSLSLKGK [H2CA-2-B9-IGFR] when tested with IR (Homo sapiens, UniProt P06213) stands at 0.2

The observed Comparisons IR/IGF-1R for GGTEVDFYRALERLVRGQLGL [20E2B-3-D8-IGFR] when tested with IR (Homo sapiens, UniProt P06213) stands at 0.1

* * *

Let's look at some sequences and their measured FFC.
Tested on: free fat cells (adipocytes)
Assay: Adipocyte / free fat cell (FFC) assay, 3H glucose incorporation into lipid
Details: Table 6, free fat cell assay
// keep it numeric: no unit symbol after the value

| Residue Codes | FFC |
| --- | --- |
| ESFYDWFERQ [Peptide S400] | 0 |

Here's the next entry for you.
Item: GSLDESFYDWFER [Peptide S396] | FFC: 0

* * *

Let's look at some sequences and their measured IC50.
Biological target: IR (Homo sapiens, UniProt P06213)
Test: IR-IC50 Biacore
Set-up: replacing the transmembrane domain and the intracellular domain of IR with constant domains from immunoglobulin Fc or λ subunits; made in house; host or cells: human embryonic kidney 293 cells (Bass et al.)
No end group written: not given here.
Kindly provide the numeric value in nM only, without the unit symbol.

| Residue Codes | Target Under Test | IC50 [nM] |
| --- | --- | --- |
| RSEASFHVEFYSWFEEQLRS [RP-2] | IR (Homo sapiens, UniProt P06213) | 1000 |
| PPWGARFYDAIEQLVFDNL [RP-4] | IR (Homo sapiens, UniProt P06213) | 5000 |

Here's the next entry for you.
Item: GSRPVFHEQFYEWFVDQLGL [RP-1] | IC50: 1000

* * *

Let's look at some substances and their measured Comparisons IGF-1R/IR.
Target: IGF-1R (Homo sapiens)
Test: Phage ELISA, binding of phage clones to IGF-1R (ratio over background)
Conditions: ratio of IGF-1R divided by ratio of IR
// keep it numeric: no unit symbol after the value

| Substance | Measured Number |
| --- | --- |
| GLDHSDAVGVHLGFAWPAQARGRWEAGGLEDTWAGYDWL [40F-4-B1-IGFR] | 13.1 |
| W.GYAWLS [40F-4-D10-IGFR] | 11.7 |
| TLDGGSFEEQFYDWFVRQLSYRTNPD [H2CA-4-G11-IGFR] | 3.9 |

Item: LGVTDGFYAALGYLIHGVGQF [20E2B-3-D11-IGFR] | Comparisons IGF-1R/IR: 7.6

Item: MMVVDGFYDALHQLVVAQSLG [20E2A-3-D10-IGFR] | Comparisons IGF-1R/IR: 3.9

Item: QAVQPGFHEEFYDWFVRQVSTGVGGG [H2CA-4-H4-IGFR] | Comparisons IGF-1R/IR: 4.2

Item: EGSGFYGYFFSLLGLQG [NNRPγ-4-A9-IR] | Comparisons IGF-1R/IR: 7.1

Item: GCEVIVEEGDSADPFYHKLSELCQGS [Peptide B6Hα-2-D1-IR] | Comparisons IGF-1R/IR: 4.2

Item: AICDAGFHEHFYDWFALQVSDCGRQS [H2CA-2-B11-IGFR] | Comparisons IGF-1R/IR: 3.0
